Assign furin cleavage Z-score to each entry below.
measured_on: furin, P09958
Sequence (P09958 whole entry): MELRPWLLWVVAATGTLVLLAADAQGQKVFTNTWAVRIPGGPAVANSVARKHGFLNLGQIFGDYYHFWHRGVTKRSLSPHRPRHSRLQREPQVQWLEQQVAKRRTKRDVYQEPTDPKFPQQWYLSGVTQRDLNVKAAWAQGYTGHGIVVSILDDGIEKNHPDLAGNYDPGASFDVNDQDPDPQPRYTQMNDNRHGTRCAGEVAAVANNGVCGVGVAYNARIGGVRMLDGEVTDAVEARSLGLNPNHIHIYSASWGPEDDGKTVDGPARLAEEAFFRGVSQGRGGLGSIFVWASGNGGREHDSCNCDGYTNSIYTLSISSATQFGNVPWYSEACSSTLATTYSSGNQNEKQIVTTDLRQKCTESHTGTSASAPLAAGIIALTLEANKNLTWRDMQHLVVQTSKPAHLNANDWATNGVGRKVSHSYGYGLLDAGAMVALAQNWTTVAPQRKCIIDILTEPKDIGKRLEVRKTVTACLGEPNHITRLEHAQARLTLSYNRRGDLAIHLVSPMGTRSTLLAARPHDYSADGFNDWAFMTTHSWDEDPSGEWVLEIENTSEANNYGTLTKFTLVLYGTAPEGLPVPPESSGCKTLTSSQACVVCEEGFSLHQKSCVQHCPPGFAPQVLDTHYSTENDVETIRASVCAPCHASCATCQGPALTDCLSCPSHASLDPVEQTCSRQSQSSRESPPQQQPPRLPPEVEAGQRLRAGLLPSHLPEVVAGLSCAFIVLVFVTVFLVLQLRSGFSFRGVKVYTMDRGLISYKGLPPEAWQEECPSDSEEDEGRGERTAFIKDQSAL
procedure_details: furin cleavage Z-score vs untreated control; higher = more cleavage, active = 3.5 or more, inactive = 1 or less, 8 variable residues between constant flanks;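 further: purified furin at 1:10 enzyme:substrate in 50 mM HEPES pH 7.5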
measurement_setup: 15 min
Some of the results follow. How many sequences the whole screen found active is unknown.

Item under review: CARKGRVVIDAGNASASA [FS-2263] . Reported furin cleavage Z-score?
-0.368 (inactive)

Item under review: CARLKKFQEAAGNASASA [FS-2987] . Reported furin cleavage Z-score?
-1.1 (inactive)

Item under review: CARVGRGVSIAGNASASA [FS-2195] . Reported furin cleavage Z-score?
-0.0472 (inactive)

Item under review: CALVGLMALTAGNASASA [HC572] . Reported furin cleavage Z-score?
-0.497 (inactive)

Item under review: CAELLRKKRTAGNASASA [FS-991] . Reported furin cleavage Z-score?
6.85 (active)
